# Test system: KM12 colon
# Experiment: NCI-60 one-dose screen, 48 h (100 = growth as untreated, 0 = no growth, -100 = all killed)
# Assay conditions: 10 µM unless noted
About 83,000 compounds went through this panel and 20% of them were active in at least one assay; those are over-represented in the sample as a whole.
Measured quantity: growth (%)

>>> observed("C=C[C@@H]1C[C@@H]2Cc3cc(F)ccc3N1O2")
108
>>> observed("Cc1ccc(S(=O)(=O)/C(=C\\c2ccc(Cl)cc2)C(=O)c2ccccc2)cc1")
111
>>> observed("Cc1nc2ncccc2nc1Nc1ccc(S(=O)(=O)Nc2cncs2)cc1")
97.7

Where do these numbers come from? They come from PubChem BioAssay (NCI).
